assayTarget: CSNK1D (human) (UniProt P48730)
Sequence (P48730 whole entry, looked up): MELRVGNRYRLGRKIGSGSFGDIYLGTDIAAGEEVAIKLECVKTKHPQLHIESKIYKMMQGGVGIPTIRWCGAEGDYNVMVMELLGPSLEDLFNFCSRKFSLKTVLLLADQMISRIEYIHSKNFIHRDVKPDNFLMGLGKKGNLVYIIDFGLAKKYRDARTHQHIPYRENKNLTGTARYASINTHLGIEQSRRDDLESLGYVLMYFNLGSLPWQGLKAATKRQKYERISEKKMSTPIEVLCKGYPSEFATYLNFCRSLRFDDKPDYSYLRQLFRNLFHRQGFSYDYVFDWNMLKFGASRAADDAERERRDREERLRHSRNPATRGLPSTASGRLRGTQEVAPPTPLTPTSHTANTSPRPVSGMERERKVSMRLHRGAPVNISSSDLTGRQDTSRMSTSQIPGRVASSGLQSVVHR
assayComment: radiometric filter-binding kinase assay, Kinase HotSpot
details: compound 0.5 µM; ATP 10 µM
quantityName: residual activity (%)
Hi! Could you send only the number? It should be in %, unit omitted.

For orientation, consider the following solved cases.
> print(dat)
                                   compound  quantitativeresult
1  Nc1nc(Nc2ccc(S(N)(=O)=O)cc2)nn1C(=S)Nc1c(F)cccc1F                83.7
2  CCCNC(=O)Nc1ccc(Oc2ncnc3cc(OC)c(OC)cc23)cc1Cl                98.9
3  O=C(NC(NC(=S)Nc1ccc(F)c([N+](=O)[O-])c1)C(Cl)(Cl)Cl)C(c1ccccc1)c1ccccc1 (stereo not drawn)                 105
4      COc1ccc(-c2cnc3c(-c4ccsc4)cnn3c2)cc1                83.6

Entry `COc1cc2ncnc(Nc3ccc(F)c(Cl)c3)c2cc1OCCCN1CCOCC1` — recorded residual activity = 90.4

Entry `Nc1n[nH]c2nnc(-c3c(-c4ccccc4)nn4ccccc34)cc12` — recorded residual activity = 63.2

----------
assayTarget: CHUK (human)
assayComment: radiometric filter-binding kinase assay, Kinase HotSpot
details: compound 0.5 µM; ATP 10 µM
quantityName: residual activity (%)
Hi! Could you send only the number? It should be in %, unit omitted.

> print(dat)
                                   compound   assaytarget       quantityname  quantitativeresult
1  CCCNC(=O)Nc1ccc(Oc2ncnc3cc(OC)c(OC)cc23)cc1Cl  CHUK (human)  residual activity                84.9
2  O=C1Cc2c([nH]c3ccc([N+](=O)[O-])cc23)-c2ccccc2N1  CHUK (human)  residual activity                 103
3  Oc1ccc(-c2nc(-c3ccc(F)cc3)c(-c3ccncc3)[nH]2)cc1  CHUK (human)  residual activity                 107
4               Cc1cc2ncc(-c3ccccc3)nc2cc1C  CHUK (human)  residual activity                86.9

Next item in the queue.
Entry CS(=O)c1ccc(-c2nc(-c3ccc(F)cc3)c(-c3ccncc3)[nH]2)cc1 (stereo not given) — recorded residual activity = 100

----------
assayTarget: RPS6KA4 KD2 (human) (UniProt O75676)
Sequence (O75676 whole entry, looked up): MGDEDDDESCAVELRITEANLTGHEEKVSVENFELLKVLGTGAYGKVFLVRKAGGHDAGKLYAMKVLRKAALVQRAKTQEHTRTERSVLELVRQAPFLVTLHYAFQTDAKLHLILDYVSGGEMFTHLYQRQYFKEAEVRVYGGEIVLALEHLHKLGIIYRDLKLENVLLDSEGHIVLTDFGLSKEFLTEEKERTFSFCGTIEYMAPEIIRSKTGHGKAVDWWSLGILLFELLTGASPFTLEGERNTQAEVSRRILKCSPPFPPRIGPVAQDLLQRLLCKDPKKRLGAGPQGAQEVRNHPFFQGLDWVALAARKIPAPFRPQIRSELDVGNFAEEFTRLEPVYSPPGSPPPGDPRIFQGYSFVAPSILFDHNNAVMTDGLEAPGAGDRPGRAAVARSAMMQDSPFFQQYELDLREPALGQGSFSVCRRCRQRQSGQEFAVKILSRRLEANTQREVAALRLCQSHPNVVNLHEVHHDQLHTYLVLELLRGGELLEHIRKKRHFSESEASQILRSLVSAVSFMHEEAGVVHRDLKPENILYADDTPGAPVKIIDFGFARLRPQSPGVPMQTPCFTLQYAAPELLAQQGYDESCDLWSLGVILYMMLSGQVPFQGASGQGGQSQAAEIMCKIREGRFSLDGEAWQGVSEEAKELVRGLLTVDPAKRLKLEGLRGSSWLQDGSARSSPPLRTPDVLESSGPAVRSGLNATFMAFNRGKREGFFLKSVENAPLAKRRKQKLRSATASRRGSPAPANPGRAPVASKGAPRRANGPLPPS
assayComment: radiometric filter-binding kinase assay, Kinase HotSpot
details: compound 0.5 µM; ATP 10 µM
# residual activity per record follows
Hi! Could you send only the number? It should be in %, unit omitted.

For orientation, consider the following solved cases.
> print(dat)
                                    compound  unitsofmeasure  quantitativeresult
 1  O=C1Cc2c([nH]c3ccc([N+](=O)[O-])cc23)-c2ccccc2N1               %                90.6
 2  Nc1nc(Nc2ccc(S(N)(=O)=O)cc2)nn1C(=O)c1c(F)cccc1F               %                90.2
 3  CC(C)[C@H](CO)Nc1nc(Nc2cccc(Cl)c2)c2ncn(C(C)C)c2n1               %                90.1
 4      O=C(Nc1ccc(Cl)cc1)c1ccccc1NCc1ccncc1               %                90.2
 5      COc1ccc(-c2cnc3c(-c4ccsc4)cnn3c2)cc1               %                98.7
 6   CC(C)n1cnc2c(Nc3cccc(Cl)c3)nc(NCCO)nc21               %                83.8
 7   O=C1Nc2ccccc2/C1=C\c1c(Cl)[nH]c2ccccc12               %                93.6
 8     O=c1cc(N2CCNCC2)oc2c(-c3ccccc3)cccc12               %                 117
 9  CSc1nc(-c2ccc(F)cc2)c(-c2ccnc(NC(C)c3ccccc3)c2)[nH]1 (configuration not stated)               %                96.5
10  O=C1Nc2cc(Br)ccc2/C1=C1/Nc2ccccc2/C1=N\O               %                56.1

Entry `CCN1/C(=C/C(C)=O)Sc2ccc(OC)cc21` — recorded residual activity = 91.8

Entry `O=c1cc(-c2cccc3c2Sc2ccccc2S3)oc(N2CCOCC2)c1` — recorded residual activity = 88.1

----------
assayTarget: GRK4 (human) (UniProt P32298)
Sequence (P32298 whole entry, looked up): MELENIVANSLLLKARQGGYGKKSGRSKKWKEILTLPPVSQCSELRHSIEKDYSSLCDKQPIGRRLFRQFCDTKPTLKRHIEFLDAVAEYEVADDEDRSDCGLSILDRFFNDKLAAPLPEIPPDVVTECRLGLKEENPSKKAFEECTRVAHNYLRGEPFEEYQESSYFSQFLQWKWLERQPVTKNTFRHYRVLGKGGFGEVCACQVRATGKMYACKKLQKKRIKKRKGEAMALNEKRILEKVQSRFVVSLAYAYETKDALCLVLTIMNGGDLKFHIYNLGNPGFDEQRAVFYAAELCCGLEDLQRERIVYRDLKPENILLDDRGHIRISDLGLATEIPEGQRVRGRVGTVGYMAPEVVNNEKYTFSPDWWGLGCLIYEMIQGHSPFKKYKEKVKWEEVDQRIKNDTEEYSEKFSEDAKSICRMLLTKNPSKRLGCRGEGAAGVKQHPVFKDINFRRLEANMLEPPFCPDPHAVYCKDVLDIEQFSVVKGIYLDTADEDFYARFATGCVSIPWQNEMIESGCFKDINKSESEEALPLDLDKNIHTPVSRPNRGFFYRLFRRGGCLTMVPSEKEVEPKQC
assayComment: radiometric filter-binding kinase assay, Kinase HotSpot
details: compound 0.5 µM; ATP 10 µM
# residual activity per record follows
Hi! Could you send only the number? It should be in %, unit omitted.

> print(dat)
                               smilesstring  quantitativeresult
1  Nc1n[nH]c2nnc(-c3c(-c4ccccc4)nn4ccccc34)cc12                 103
2  Nc1nc(Nc2ccc(S(N)(=O)=O)cc2)nn1C(=S)Nc1c(F)cccc1F                92.2
3     O=c1cc(N2CCNCC2)oc2c(-c3ccccc3)cccc12                 106

Entry `COc1cc2nccc(Oc3ccc(NC(=S)NC(=O)c4ccccc4C)cc3)c2cc1OC` — recorded residual activity = 95.9

Entry `O=C1Nc2cc(Br)ccc2/C1=C1/Nc2ccccc2/C1=N\O` — recorded residual activity = 90.1

----------
assayTarget: NUAK1 (human)
assayComment: radiometric filter-binding kinase assay, Kinase HotSpot
details: compound 0.5 µM; ATP 10 µM
quantityName: residual activity
Note: a bare number is incomplete; add the unit.

For orientation, consider the following solved cases.
> print(dat)
                                   molecule  result
1  CC(C)[C@H](CO)Nc1nc(Nc2cccc(Cl)c2)c2ncn(C(C)C)c2n1   71.1%
2  CS(=O)c1ccc(-c2nc(-c3ccc(F)cc3)c(-c3ccncc3)[nH]2)cc1 (centres undefined)   94.4%
3  Oc1ccc(-c2nc(-c3ccc(F)cc3)c(-c3ccncc3)[nH]2)cc1   97.3%

Next item in the queue.
Entry `Nc1nc(Nc2ccc(S(N)(=O)=O)cc2)nn1C(=S)Nc1c(F)cccc1F` — recorded residual activity = 2.13%

----------
# residual activity per record follows
assayTarget: CDK1 CCNA2 (human) (UniProt P06493+P20248)
Sequence (P06493 whole entry, looked up): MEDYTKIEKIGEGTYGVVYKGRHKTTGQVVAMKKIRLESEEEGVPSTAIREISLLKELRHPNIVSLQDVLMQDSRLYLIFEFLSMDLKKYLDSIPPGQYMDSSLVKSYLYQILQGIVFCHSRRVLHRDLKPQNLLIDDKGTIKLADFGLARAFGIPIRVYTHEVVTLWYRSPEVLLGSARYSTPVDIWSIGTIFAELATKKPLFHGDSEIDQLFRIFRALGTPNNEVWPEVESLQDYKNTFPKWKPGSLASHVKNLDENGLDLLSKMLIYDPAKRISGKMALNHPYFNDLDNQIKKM
Sequence (P20248 whole entry, looked up): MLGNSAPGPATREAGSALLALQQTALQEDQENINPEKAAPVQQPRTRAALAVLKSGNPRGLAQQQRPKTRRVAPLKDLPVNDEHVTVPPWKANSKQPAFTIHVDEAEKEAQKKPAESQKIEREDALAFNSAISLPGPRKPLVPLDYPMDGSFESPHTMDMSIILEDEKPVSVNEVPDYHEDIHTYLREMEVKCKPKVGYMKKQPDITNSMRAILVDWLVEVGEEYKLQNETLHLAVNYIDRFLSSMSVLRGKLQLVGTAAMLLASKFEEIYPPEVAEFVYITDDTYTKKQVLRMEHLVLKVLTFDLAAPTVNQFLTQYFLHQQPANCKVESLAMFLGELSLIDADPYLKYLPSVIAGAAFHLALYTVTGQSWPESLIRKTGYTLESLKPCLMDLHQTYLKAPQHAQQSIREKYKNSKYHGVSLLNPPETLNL
assayComment: radiometric filter-binding kinase assay, Kinase HotSpot
details: compound 0.5 µM; ATP 10 µM

For orientation, consider the following solved cases.
> print(dat)
                                   compound       quantityname  result
1      O=C(Nc1ccc(Cl)cc1)c1ccccc1NCc1ccncc1  residual activity   91.8%
2  CC(C)(C)c1nc2c3ccc(F)cc3c3c(=O)[nH]ccc3c2[nH]1  residual activity   89.4%

Kindly note: CDK1 CCNA2 (human) (UniProt P06493+P20248), `CCOc1nc(NC(=O)Cc2cc(OC)ccc2OC)cc(N)c1C#N` , residual activity value reported: 92.2%

----------
# residual activity per record follows
assayTarget: NTRK2 (human) (UniProt Q16620)
Sequence (Q16620 whole entry, looked up): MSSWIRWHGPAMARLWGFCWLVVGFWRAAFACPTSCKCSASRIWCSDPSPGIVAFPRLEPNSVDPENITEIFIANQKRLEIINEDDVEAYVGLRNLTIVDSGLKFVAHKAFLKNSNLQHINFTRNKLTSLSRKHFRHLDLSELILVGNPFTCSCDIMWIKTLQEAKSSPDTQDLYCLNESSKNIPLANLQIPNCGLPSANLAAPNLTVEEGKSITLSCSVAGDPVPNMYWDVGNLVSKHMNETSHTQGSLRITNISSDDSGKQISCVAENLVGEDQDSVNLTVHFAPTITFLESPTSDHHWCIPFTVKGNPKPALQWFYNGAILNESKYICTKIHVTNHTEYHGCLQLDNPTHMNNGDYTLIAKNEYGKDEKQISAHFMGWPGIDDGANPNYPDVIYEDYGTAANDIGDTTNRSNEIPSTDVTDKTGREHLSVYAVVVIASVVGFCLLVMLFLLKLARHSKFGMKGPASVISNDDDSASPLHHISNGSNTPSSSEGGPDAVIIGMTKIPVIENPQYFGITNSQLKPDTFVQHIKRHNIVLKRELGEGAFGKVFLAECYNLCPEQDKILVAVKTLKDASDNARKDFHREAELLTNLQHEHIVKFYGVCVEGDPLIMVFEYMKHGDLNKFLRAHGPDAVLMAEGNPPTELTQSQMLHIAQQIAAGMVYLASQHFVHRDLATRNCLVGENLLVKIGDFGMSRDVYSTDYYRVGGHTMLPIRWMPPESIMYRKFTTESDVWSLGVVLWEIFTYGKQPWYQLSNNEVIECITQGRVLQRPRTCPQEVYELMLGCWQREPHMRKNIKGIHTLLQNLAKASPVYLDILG
assayComment: radiometric filter-binding kinase assay, Kinase HotSpot
details: compound 0.5 µM; ATP 10 µM
Hi! Could you send only the number? It should be in %, unit omitted.

For orientation, consider the following solved cases.
> print(dat)
                                   compound       quantityname  unitsofmeasure  quantitativeresult
1  CCCNC(=O)Nc1ccc(Oc2ncnc3cc(OC)c(OC)cc23)cc1Cl  residual activity               %                 102
2  COc1cc2nccc(Oc3ccc(NC(=S)NC(=O)c4ccccc4C)cc3)c2cc1OC  residual activity               %                 102

Entry CSc1nc(-c2ccc(F)cc2)c(-c2ccnc(NC(C)c3ccccc3)c2)[nH]1 (stereo not given) — recorded residual activity = 88.5

Entry `O=C1Nc2ccccc2/C1=C\c1c(Cl)[nH]c2ccccc12` — recorded residual activity = 95

Entry `O=C(Nc1ccc(Cl)cc1)c1ccccc1NCc1ccncc1` — recorded residual activity = 102

----------
assayTarget: UniProt:P16591
Sequence (P16591 whole entry, looked up): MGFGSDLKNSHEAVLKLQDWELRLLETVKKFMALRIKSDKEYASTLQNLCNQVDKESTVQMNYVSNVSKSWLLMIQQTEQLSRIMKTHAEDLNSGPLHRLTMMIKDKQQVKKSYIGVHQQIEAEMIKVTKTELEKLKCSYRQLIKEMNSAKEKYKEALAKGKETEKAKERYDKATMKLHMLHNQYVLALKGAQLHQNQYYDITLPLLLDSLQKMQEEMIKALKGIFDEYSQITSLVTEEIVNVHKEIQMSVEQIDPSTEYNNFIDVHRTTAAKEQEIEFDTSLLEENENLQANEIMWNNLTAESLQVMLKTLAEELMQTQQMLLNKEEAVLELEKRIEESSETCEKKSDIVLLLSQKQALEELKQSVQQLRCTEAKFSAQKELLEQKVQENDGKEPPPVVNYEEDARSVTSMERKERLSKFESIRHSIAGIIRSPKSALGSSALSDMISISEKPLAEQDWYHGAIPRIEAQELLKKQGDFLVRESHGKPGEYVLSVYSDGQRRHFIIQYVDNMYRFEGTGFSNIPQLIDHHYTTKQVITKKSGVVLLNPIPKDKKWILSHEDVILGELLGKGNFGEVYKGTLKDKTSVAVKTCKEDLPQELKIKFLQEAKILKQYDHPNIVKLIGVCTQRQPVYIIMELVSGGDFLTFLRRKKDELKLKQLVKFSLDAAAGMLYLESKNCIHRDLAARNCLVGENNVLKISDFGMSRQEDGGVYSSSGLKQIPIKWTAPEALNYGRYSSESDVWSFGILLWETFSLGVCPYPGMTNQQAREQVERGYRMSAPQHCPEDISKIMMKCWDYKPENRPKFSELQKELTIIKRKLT
assayComment: radiometric filter-binding kinase assay, Kinase HotSpot
details: compound 0.5 µM; ATP 10 µM
# residual activity per record follows
Hi! Could you send only the number? It should be in %, unit omitted.

For orientation, consider the following solved cases.
> print(dat)
                               smilesstring  unitsofmeasure  quantitativeresult
1   CC(C)n1cnc2c(Nc3cccc(Cl)c3)nc(NCCO)nc21               %                79.5
2  CC(C)(C)c1nc2c3ccc(F)cc3c3c(=O)[nH]ccc3c2[nH]1               %                  34

Entry `O=C1Nc2cc(Br)ccc2/C1=C1/Nc2ccccc2/C1=N\O` — recorded residual activity = 69.8

Entry `CC(C)[C@H](CO)Nc1nc(Nc2cccc(Cl)c2)c2ncn(C(C)C)c2n1` — recorded residual activity = 62.9

Entry `O=C1Nc2ccccc2/C1=C\c1c(Cl)[nH]c2ccccc12` — recorded residual activity = 91.8

Entry `Cc1ccc(NC(=O)c2ccc(CN3CCN(C)CC3)cc2)cc1Nc1nc(-c2cccnc2)cs1` — recorded residual activity = 97.6

Entry `C#Cc1cccc(Nc2ncnc3cc(OCCOC)c(OCCOC)cc23)c1` — recorded residual activity = 94

Entry `CCCNC(=O)Nc1ccc(Oc2ncnc3cc(OC)c(OC)cc23)cc1Cl` — recorded residual activity = 74.1

Entry `O=c1cc(N2CCNCC2)oc2c(-c3ccccc3)cccc12` — recorded residual activity = 99.2

Entry `O=C1Cc2c([nH]c3ccc([N+](=O)[O-])cc23)-c2ccccc2N1` — recorded residual activity = 75.1

Entry `Oc1ccc(-c2nc(-c3ccc(F)cc3)c(-c3ccncc3)[nH]2)cc1` — recorded residual activity = 94.5

Entry `O=C(Nc1ccc(Cl)cc1)c1ccccc1NCc1ccncc1` — recorded residual activity = 80.4

Entry `COc1ccc(-c2cnc3c(-c4ccsc4)cnn3c2)cc1` — recorded residual activity = 81.5

Entry source: the kinase profiling compilation of Christmann-Franck et al. (2016)
